Read-out: Intercellular Adhesion Molecule 1 (ICAM1), ICAM1 (gene 3383)
Assay: BSK_3C_ICAM1: BioMAP Diversity Plus: 3C Assay for Intercellular Adhesion Molecule 1 (ICAM1) Biomarker Activity (AID 2283003)
Conditions: primary human endothelial cells (HUVEC); actives raise or lower the signal
Description: BSK_3C is a cell-based, multiplexed-readout assay that uses umbilical vein endothelium, a human vascular primary cell, with measurements taken at 24 hours after chemical dosing in a 96-well plate.BSK_3C_ICAM1 is an assay component measured in the BSK_3C assay. It measures ICAM-1 antibody related to regulation of gene expression using ELISA technology.Data from the assay component BSK_3C_ICAM1 was analyzed into 1 assay endpoint. […]
The source made the active and inactive calls. The calls were made as follows: active = hit-call score of the fitted dose curve at least 0.9, where 1 is the maximum; inactive = score below 0.9.
TEST_READOUT: AC50

COMPOUND: CCCCCCCCOc1ccc(C(=O)c2ccccc2)c(O)c1
RESULT: inactive
--
COMPOUND: CCCCOC(=O)CC(CC(=O)OCCCC)(OC(C)=O)C(=O)OCCCC
RESULT: inactive
--
COMPOUND: Cc1c2ccccc2c(C)c2c1ccc1ccccc12
RESULT: inactive
--
COMPOUND: O=C(O)Cc1cc(I)c(Oc2ccc(O)c(I)c2)c(I)c1
RESULT: inactive
--
COMPOUND: CC[C@@H]1C[C@H](N(Cc2cc(C(F)(F)F)cc(C(F)(F)F)c2)C(C)=O)c2cc(C(F)(F)F)ccc2N1C(=O)OC(C)C
RESULT: inactive
--
COMPOUND: CC(O)CC(C)(C)O (stereo not drawn)
RESULT: inactive
--
COMPOUND: CN(C)C(=O)C1(N2CCCCC2)CCN(CC[C@@]2(c3ccc(Cl)c(Cl)c3)CN(C(=O)c3ccccc3)CCO2)CC1
RESULT: 36.8 µM (active)

Consider the record given below.
compound CCCC(=O)OCCC(C)C , AC50 observed: inactive
